system: M14 melanoma; assay: NCI tumour cell line growth inhibition, 48 h; in the data active = GI50 below about 0.43 µM; inactive = the rest
Returns: one label drawn from yes (1) = active, no (0) = inactive

Lookup: Lab log entry: `COc1ccc(/C(C#N)=C/c2cc(OC)c(OC)c(OC)c2)cc1` — outcome as called in the assay?
Found: no (0)

Lookup: Lab log entry: CCC1(OC(=O)CN)C(=O)OCc2c1cc1n(c2=O)Cc2cc3ccccc3nc2-1 (stereo unspecified) — outcome as called in the assay?
Found: yes (1)

Lookup: Lab log entry: `CC(=O)/C=C/C1=C(c2csc3ccccc23)c2ccccc2CC1` — outcome as called in the assay?
Found: no (0)

* * *

test system: NCI-H522 lung; experiment: NCI tumour cell line growth inhibition, 48 h
Readout: TGI

The reported NCI-H522 lung TGI of O=C(OC1CN2CCC1CC2)N(c1ccccc1)c1ccccc1 (stereo unspecified) is > 100 µM

The reported NCI-H522 lung TGI of COc1ccc2c(c1OC)C(C(Cl)(Cl)Cl)N1CCc3cc4c(cc3C1=C2)OCO4 (stereo unspecified) is 35.1 µM

The reported NCI-H522 lung TGI of `O=c1[nH]nc(Cc2ccccc2)n1/N=C/c1cccnc1` is > 100 µM

The reported NCI-H522 lung TGI of `O=[N+]([O-])/C=C(\CS(=O)(=O)c1ccccc1)c1ccc2c(c1)OCO2` is > 100 µM

The reported NCI-H522 lung TGI of c1ccc(SC23C4C5C6C4C2C6C53)nc1 (stereo unspecified) is > 100 µM
